# subject.of.test: c-kit autophosphorylation (Phospho c-Kit Tyr721) in HMC 1.1 (exon 11/13) cells, V654A (Homo sapiens, UniProt P10721, V560G/V654A)
# Construct: endogenous in cells
# Sequence (P10721 26-976 V560G/V654A): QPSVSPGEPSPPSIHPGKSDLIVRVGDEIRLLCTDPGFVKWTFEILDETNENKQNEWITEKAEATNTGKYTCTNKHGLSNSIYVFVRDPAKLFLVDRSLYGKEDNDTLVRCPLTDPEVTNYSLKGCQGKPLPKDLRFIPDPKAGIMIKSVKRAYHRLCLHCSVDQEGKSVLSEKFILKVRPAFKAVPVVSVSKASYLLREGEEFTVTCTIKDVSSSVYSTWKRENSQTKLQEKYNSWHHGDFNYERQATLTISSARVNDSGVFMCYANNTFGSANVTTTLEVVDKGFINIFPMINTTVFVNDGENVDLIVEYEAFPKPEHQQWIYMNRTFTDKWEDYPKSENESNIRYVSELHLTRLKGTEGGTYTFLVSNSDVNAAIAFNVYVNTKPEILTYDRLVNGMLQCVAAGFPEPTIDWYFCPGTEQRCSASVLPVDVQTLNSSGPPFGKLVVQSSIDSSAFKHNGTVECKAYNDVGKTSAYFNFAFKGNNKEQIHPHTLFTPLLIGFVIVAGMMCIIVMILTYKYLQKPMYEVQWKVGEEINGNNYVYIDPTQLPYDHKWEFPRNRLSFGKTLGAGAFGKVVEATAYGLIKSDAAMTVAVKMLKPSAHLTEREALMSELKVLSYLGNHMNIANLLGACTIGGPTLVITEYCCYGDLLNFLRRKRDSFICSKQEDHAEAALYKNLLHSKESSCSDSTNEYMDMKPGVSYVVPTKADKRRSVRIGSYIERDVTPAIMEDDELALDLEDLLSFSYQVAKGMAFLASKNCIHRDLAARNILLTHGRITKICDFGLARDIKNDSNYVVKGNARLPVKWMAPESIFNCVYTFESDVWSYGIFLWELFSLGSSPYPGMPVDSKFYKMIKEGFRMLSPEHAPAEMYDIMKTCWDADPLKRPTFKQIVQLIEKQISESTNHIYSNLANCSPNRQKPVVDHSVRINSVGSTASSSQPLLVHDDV
# test.name: pKIT Meso Scale Discovery (MSD) assay, inhibition of autophosphorylation of KIT, HMC1.1_V654A
# stated.conditions: Table 1, cell line not named for Table 1, b1056 names pKIT HMC1.1_V654A, read-out: Code (IC50 for inhibition of autophosphorylation of KIT, pKIT MSD assay)
pIC50: −log10 of the molar value.
metric: pIC50

>  <compound>
CCOc1cc(Nc2cc(N)nc(C(F)F)n2)ncc1-c1cnn(C2CN(C)C2)c1 [Compound 141]

>  <result>
> 8.00

$$$$
>  <compound>
Nc1cc(Nc2cc(NC3CC3)c(C(=O)NCc3ncco3)cn2)nc(C(F)F)n1 [Compound 135]

>  <result>
> 8.00

$$$$

Next:
The compound listed as CNc1cc(Nc2cc(N)nc(C(F)F)n2)ncc1C(=O)NC(C)C [Compound 29] shows pIC50 equal to > 8.00
